# System: HT29 colon
# Run description: NCI-60 one-dose screen, 48 h (100 = growth as untreated, 0 = no growth, -100 = all killed)
# Condition context: 10 µM unless noted
About 83,000 compounds went through this panel and 20% of them were active in at least one assay; those are over-represented in the sample as a whole.
Record form. Attribute: growth. Fill in for each entry.
Report the figure in % without appending any unit label.

Note to self: growth of Cn1c(COC(=O)NCCn2ccnc2)nc2c(N3CCOCC3)nc(-c3ccccc3)nc21 with HT29 colon was -12.1

Log: HT29 colon, compound COc1ccc(C(O)c2cc3c(N)c(C(=O)Nc4cccc(OC)c4)sc3nc2C)cc1 (centres undefined) , growth = 2.47

Measured growth for this entry COc1ccc(/C=C(/c2ccccc2)[N+](=O)[O-])cc1 on HT29 colon: -26.7

Note to self: growth of Nc1ccccc1NC(=O)c1ccc(CN2CCC/C(=C\c3cccc(Cl)c3)C2=O)cc1 with HT29 colon was 1.41
